FYI, the data here is from the supplement of paper PMC9112550.

# maps each entry to its shrunken log2 fold change
- Test system: Escherichia coli TOP10;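 note: peptides expressed intracellularly from a pBAD plasmid library in pooled LB shake-flask culture, induced with 0.3% L-arabinose, DNA abundance read by NGS, three biological replicates, DESeq2 with apeglm shrinkage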
- protocol_notes: shrunken log2 fold change of peptide-encoding DNA abundance (4.5 h post-induction vs induction); higher = less antimicrobial activity (less host growth inhibition)
- condition_description: time post-induction: 4.5 h; library: site-saturation at positions 5, 18, 19, 20
// keep it numeric: no unit symbol after the value

Examples from the recorded data:
- sequence_chain: "RRIRTRPPRLPRPRPRPTWCPRP"
  shrunken log2 fold change: -0.178
- sequence_chain: "RRIRIRPPRLPRPRPRPHPWPRP"
  shrunken log2 fold change: -0.319
- sequence_chain: "RRIRMRPPRLPRPRPRPNGVPRP"
  shrunken log2 fold change: 0.194
- sequence_chain: "RRIRDRPPRLPRPRPRPEVYPRP"
  shrunken log2 fold change: -0.00999

// shrunken log2 fold change lookup, key: "RRIRSRPPRLPRPRPRPNPLPRP"
0.182

Can you handle "RRIRQRPPRLPRPRPRPECRPRP" next?
0.414

Can you handle "RRIRERPPRLPRPRPRPCDEPRP" next?
0.011

Can you handle "RRIRKRPPRLPRPRPRPEMRPRP" next?
0.105

Can you handle "RRIRERPPRLPRPRPRPAPDPRP" next?
0.26
